For each record, write down the corresponding pIC50.
- TARGET OR SYSTEM: Tyrosine-protein phosphatase non-receptor type 1 (Homo sapiens, UniProt P18031)
- Sequence (P18031 whole entry, the tested form may be a part): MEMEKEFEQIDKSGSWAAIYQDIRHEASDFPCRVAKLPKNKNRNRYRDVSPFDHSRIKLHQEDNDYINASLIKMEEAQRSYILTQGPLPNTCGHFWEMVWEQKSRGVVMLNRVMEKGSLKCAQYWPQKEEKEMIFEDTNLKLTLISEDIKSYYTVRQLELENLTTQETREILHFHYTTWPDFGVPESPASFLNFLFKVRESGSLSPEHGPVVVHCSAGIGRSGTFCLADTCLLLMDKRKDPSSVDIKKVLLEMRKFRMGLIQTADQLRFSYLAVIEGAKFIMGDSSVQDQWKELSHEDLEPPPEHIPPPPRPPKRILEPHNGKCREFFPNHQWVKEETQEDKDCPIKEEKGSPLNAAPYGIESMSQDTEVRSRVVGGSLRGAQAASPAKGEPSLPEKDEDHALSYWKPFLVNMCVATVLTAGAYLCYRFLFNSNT
- ASSAY EXPLANATION: Inhibition of human recombinant PTP1B catalytic domain
One number for each entry, as −log10 of the molar value.

Some solved entries appear below for comparison.
Query: Any idea what its pIC50 is? The compound is CC1=C[C@@H]2C[C@H](C)[C@]1(C)CCc1ccoc12
Reply: 5.06

Query: Any idea what its pIC50 is? The compound is C=C1CCC[C@@H](C)[C@@]1(C)CCc1ccoc1
Reply: 4.51

Query: Any idea what its pIC50 is? The compound is C=C1C=CC[C@@H](C)[C@@]1(C)CCC1=CC(O)OC1=O (some centres undefined) [HYDROXYBUTENOLIDE]
Reply: 4.33

---
Query: Any idea what its pIC50 is? The compound is C[C@@H]1[C@@H]2C=C[C@@](C)(OO2)[C@@]1(C)CCC1=CC(O)OC1=O (some centres undefined) [LINGSHUIPEROXIDE]
Reply: 4.50
